p38 reporter activity score values by entry
Test system: PC9
assay method text: p38 reporter activity score (signed KS statistic vs DMSO) (signed KS statistic (-1 to 1)); higher = stronger activation of the pathway reporter relative to DMSO
cond: 0.5 µM; time after treatment 48 h; PC9 signalome

What p38 reporter activity score value was documented for this compound, `O=C(NOC[C@H](O)CO)c1ccc(F)c(F)c1Nc1ccc(I)cc1F` ?
-0.265

----------
Test system: PC9
assay method text: PKA reporter activity score (signed KS statistic vs DMSO) (signed KS statistic (-1 to 1)); higher = stronger activation of the pathway reporter relative to DMSO
cond: 0.5 µM; time after treatment 48 h; PC9 signalome
Parameter threshold = -0.1. Response is true (1) when PKA reporter activity score meets or exceeds it, else false (0).

> print(dat)
                                   compound  assigned.label
1  CCn1c(-c2nonc2N)nc2c(C#CC(C)(C)O)ncc(OC[C@H]3CCCNC3)c21        true (1)

PKA reporter activity score >= -0.1 for `O=C(Nc1cc(C(F)(F)F)cc(C(F)(F)F)c1)c1cc(Cl)ccc1O` ?
false (0)

Identify whether the reported PKA reporter activity score of the following compound is -0.1 or greater: Cn1cnc2c(F)c(Nc3ccc(Br)cc3Cl)c(C(=O)NOCCO)cc21 [AZD6244 (Selumetinib)]
true (1)

----------
Reported values of PKC reporter activity score for individual entries
Tested on: PC9
assay method text: PKC reporter activity score (signed KS statistic vs DMSO) (signed KS statistic (-1 to 1)); higher = stronger activation of the pathway reporter relative to DMSO
cond: 0.5 µM; time after treatment 48 h; PC9 signalome
Write no unit; give the number alone.

Field: example entries. Status: answers known.
> print(dat)
                                   molecule  tested.target  observed.measurement
1  CC(C)n1nc(-c2cc3cc(O)ccc3[nH]2)c2c(N)ncnc21            PC9               -0.0669
2  C=CC(=O)Nc1cccc(Oc2nc(Nc3ccc(N4CCN(C)CC4)cc3)ncc2Cl)c1            PC9                 0.125
3  COc1cc2ncnc(Nc3ccc(F)c(Cl)c3)c2cc1OCCCN1CCOCC1 [Gefitinib (Iressa)]            PC9                0.0998
4  CC(C)NC[C@@H](C(=O)N1CCN(c2ncnc3c2[C@H](C)C[C@H]3O)CC1)c1ccc(Cl)cc1 [Ipatasertib (GDC-0068)]            PC9               -0.0598

Would you kindly look at the next entry?
Name the recorded PKC reporter activity score for C#CCC(Cc1cnc2nc(N)nc(N)c2n1)c1ccc(C(=O)N[C@@H](CCC(=O)O)C(=O)O)cc1 (stereo not given in full) [Pralatrexate(Folotyn)] .
0.0797

----------
Test system: PC9
assay method text: RAR reporter activity score (signed KS statistic vs DMSO) (signed KS statistic (-1 to 1)); higher = stronger activation of the pathway reporter relative to DMSO
cond: 0.5 µM; time after treatment 48 h; PC9 signalome
reported property: RAR reporter activity score
// keep it numeric: no unit symbol after the value

Examples with their reported RAR reporter activity score follow.
> print(dat)
                                   molecule            reported.property  observed.measurement
1  CCn1c(-c2nonc2N)nc2c(C#CC(C)(C)O)ncc(OC[C@H]3CCCNC3)c21  RAR reporter activity score                -0.292
2  CCN(CC)CCNC(=O)c1c(C)[nH]c(/C=C2\C(=O)Nc3ccc(F)cc32)c1C [Sunitinib Malate (Sutent)]  RAR reporter activity score                 -0.28
3  CC(C)CC(=O)Nc1n[nH]c2c1CN(C(=O)C1CCN(C)CC1)C2(C)C  RAR reporter activity score                 0.417

Moving on to another molecule below.
Reported RAR reporter activity score, molecule `Cc1nc(NC(=O)N2CCC[C@H]2C(N)=O)sc1-c1ccnc(C(C)(C)C(F)(F)F)c1` : ____
0.0272

----------
Tested on: PC9
assay method text: RAR reporter activity score (signed KS statistic vs DMSO) (signed KS statistic (-1 to 1)); higher = stronger activation of the pathway reporter relative to DMSO
cond: 0.5 µM; time after treatment 48 h; PC9 signalome
reported property: RAR reporter activity score
Please give the numeric answer without any surrounding text.

These solved cases illustrate the format of a correct answer.
> print(dat)
                                 smiles.str  observed.measurement
1  O=C(NCCCNc1nc(Nc2cccc(NC(=O)N3CCCC3)c2)ncc1I)c1cccs1               -0.0747
2  CC(=O)Nc1cccc(-n2c(=O)n(C3CC3)c(=O)c3c(Nc4ccc(I)cc4F)n(C)c(=O)c(C)c32)c1                 0.158

Attention now shifts to the item below.
Lookup: RAR reporter activity score / PC9 / `C=CC(=O)Nc1cccc(Sc2nc(Nc3ccc(N4CCN(C)CC4)cc3)ncc2Cl)c1`
0.467

----------
System: PC9
assay method text: PKC reporter activity score (signed KS statistic vs DMSO) (signed KS statistic (-1 to 1)); higher = stronger activation of the pathway reporter relative to DMSO
cond: 0.5 µM; time after treatment 48 h; PC9 signalome
Measured PKC reporter activity score, listed per entry for reference.

molecule	reported property	observed measurement
CN(C)C/C=C/C(=O)Nc1cc2c(Nc3ccc(F)c(Cl)c3)ncnc2cc1O[C@H]1CCOC1 [Afatinib (BIBW2992)]	PKC reporter activity score	0.191
Cc1nc(NC(=O)N2CCC[C@H]2C(N)=O)sc1-c1ccnc(C(C)(C)C(F)(F)F)c1 [Alpelisib (BYL719)]	PKC reporter activity score	-0.0493
CO[C@H]1C[C@@H]2CC[C@@H](C)[C@@](O)(O2)C(=O)C(=O)N2CCCC[C@H]2C(=O)O[C@H]([C@H](C)C[C@@H]2CC[C@@H](OP(C)(C)=O)[C@H](OC)C2)CC(=O)[C@H](C)/C=C(\C)[C@@H](O)[C@@H](OC)C(=O)[C@H](C)C[C@H](C)/C=C/C=C/C=C/1C [Deforolimus (MK-8669)]	PKC reporter activity score	-0.044
CN1CCN(c2nc(C3=C(c4c[nH]c5ccccc45)C(=O)NC3=O)c3ccccc3n2)CC1 [Sotrastaurin (AEB071)]	PKC reporter activity score	0.0333
Cn1c(=O)c(F)c(Nc2ccc(I)cc2F)c2c(=O)n(C[C@@H](O)CO)cnc21	PKC reporter activity score	0.0748

// below: PKC reporter activity score requested for another molecule
Consider the molecule shown here: O=C(/C=C/c1cccc(S(=O)(=O)Nc2ccccc2)c1)NO [Belinostat (PXD101)] What is its recorded PKC reporter activity score?
0.12

----------
# YAP/TAZ reporter activity score annotations
Tested on: PC9
assay method text: YAP/TAZ reporter activity score (signed KS statistic vs DMSO) (signed KS statistic (-1 to 1)); higher = stronger activation of the pathway reporter relative to DMSO
cond: 0.5 µM; time after treatment 48 h; PC9 signalome
Write the value as a bare number.

Example cases with answers are listed next.
compound	observed measurement
C=CC(=O)Nc1cccc(Sc2nc(Nc3ccc(N4CCN(C)CC4)cc3)ncc2Cl)c1	0.338
Cn1c(=O)c(F)c(Nc2ccc(I)cc2F)c2c(=O)n(C[C@@H](O)CO)cnc21	0.513
C=CC(=O)Nc1cccc(Oc2nc(Nc3ccc(N4CCN(C)CC4)cc3)ncc2Cl)c1	0.333
CN(C)C/C=C/C(=O)Nc1cc2c(Nc3ccc(F)c(Cl)c3)ncnc2cc1O[C@H]1CCOC1 [Afatinib (BIBW2992)]	0.397
C=CC(=O)N1CCC[C@@H](n2nc(-c3ccc(Oc4ccccc4)cc3)c3c(N)ncnc32)C1	0.322
Cc1cc(C(=O)NOCCO)c(Nc2ccc(I)cc2F)n(C)c1=O	0.448
Cc1c(NC(=O)OC[C@@H]2COCCN2)cn2ncnc(Nc3ccc4c(cnn4Cc4cccc(F)c4)c3)c12	0.0967
CC(C)n1nc(-c2ccc3oc(N)nc3c2)c2c(N)ncnc21	0.144

Please report the recorded YAP/TAZ reporter activity score for Cc1nc(NC(=O)N2CCC[C@H]2C(N)=O)sc1-c1ccnc(C(C)(C)C(F)(F)F)c1 [Alpelisib (BYL719)] .
-0.125

----------
Item-by-item account of AKT reporter activity score
Test system: PC9
assay method text: AKT reporter activity score (signed KS statistic vs DMSO) (signed KS statistic (-1 to 1)); higher = stronger activation of the pathway reporter relative to DMSO
cond: 0.5 µM; time after treatment 48 h; PC9 signalome
A bare number is all that is needed in reply.

> print(dat)
                                   compound  observed.measurement
1  CCn1c(-c2nonc2N)nc2c(C#CC(C)(C)O)ncc(OC[C@H]3CCCNC3)c21                -0.513
2  Cc1cc(C(=O)NOCCO)c(Nc2ccc(I)cc2F)n(C)c1=O               -0.0809
3  COc1cc2ncnc(Nc3ccc(F)c(Cl)c3)c2cc1NC(=O)/C=C/CN1CCCCC1                -0.392

Now for another entry.
Consider the compound O=C(/C=C/c1cccc(S(=O)(=O)Nc2ccccc2)c1)NO [Belinostat (PXD101)] and give its measured AKT reporter activity score.
-0.067
